Biological target: human PD-1 / PD-L1-Ig binding on Jurkat cell line over-expressing human PD-1 (Jurkat-PD-1) (Homo sapiens, UniProt Q15116)
Construct: expressed in transfected cells; host or cells: Jurkat
Sequence (Q15116 25-288): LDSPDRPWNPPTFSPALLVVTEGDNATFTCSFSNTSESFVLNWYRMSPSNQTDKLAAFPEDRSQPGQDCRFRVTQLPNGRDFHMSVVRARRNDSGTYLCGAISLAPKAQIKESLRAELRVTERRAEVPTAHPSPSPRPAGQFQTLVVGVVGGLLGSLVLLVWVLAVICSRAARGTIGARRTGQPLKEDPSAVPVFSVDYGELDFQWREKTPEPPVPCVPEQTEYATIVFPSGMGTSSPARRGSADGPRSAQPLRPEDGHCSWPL
Assay: Jurkat-PD-1 Cell Binding High-Content Screening Assay (CBA)
Format: cell-based
Details: Jurkat-PD-1 cells, PE-labeled PD-L1-Ig 20 nM final; read-out: Jurkat HPD1_PDL1 IC50
Method: Example 3. Jurkat-PD-1 Cell Binding High-Content Screening Assay (CBA) Jurkat-PD-1 Cell Binding High-Content Screening Assay (CBA). Phycoerythrin (PE) was covalently linked to the Ig epitope tag of human PD-L1-Ig and fluorescently-labeled PD-L1-Ig was used for binding studies with a Jurkat cell line over-expressing human PD-1 (Jurkat-PD-1). Briefly, 8×10^3 Jurkat-hPD-1 cells were seeded into 384 well plates in 20 μl of DMEM supplemented with 10% fetal calf serum. […]
Measured IC50 by item
Write it as a number; the unit µM goes unstated.

[
  {
    "Molecule": "CNC[C@@H]1NC(=O)CSC[C@@H](C(=O)N[C@@H](C)C(N)=O)NC(=O)[C@H](C(C)O)NC(=O)[C@H](C(C)C)NC(=O)[C@H](CC2CCCCC2)NC(=O)[C@H](CCN)NC(=O)[C@@H](CC(C)C)NC(=O)[C@H](CCCN)NC(=O)[C@H](C(C)C)NC(=O)[C@H](Cc2ccc(-c3ccccc3)cc2)NC(=O)[C@H](C(C)C)NC(=O)[C@H](Cc2c[nH]c3ccccc23)NC(=O)[C@H](CC(=O)O)NC(=O)[C@H](Cc2ccc(OCC(=O)O)cc2)NC1=O (some centres unmarked) [Compound 2515]",
    "Unit Text": "µM",
    "IC50": 0.0163
  }
]

Shift focus to the following entry.
So, CCC[C@@H]1NC(=O)[C@H](Cc2c[nH]c3ccccc23)NC(=O)[C@H](CC(=O)O)NC(=O)[C@H](Cc2ccc(OCC(=O)O)cc2)NC(=O)[C@H](CN)NC(=O)CSC[C@@H](C(=O)N[C@@H](C)C(N)=O)NC(=O)[C@H]([C@@H](C)O)NC(=O)[C@H](C(C)C)NC(=O)[C@H](CC2CCCCC2)NC(=O)[C@H](CCN)NC(=O)[C@@H](CC(C)C)NC(=O)[C@H](CCCN)NC(=O)[C@H]([C@@H](C)CC)NC(=O)[C@H](Cc2ccc(-c3ccccc3)cc2)NC1=O [Compound 1727] ? Its IC50 was 0.0091

Data origin, for the record: patent US20250163104A1
